From: the supplement of paper PMC3545927

- measured target: furin, P09958;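 further: purified furin at 1:10 enzyme:substrate in 50 mM HEPES pH 7.5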
- Sequence (P09958 whole entry): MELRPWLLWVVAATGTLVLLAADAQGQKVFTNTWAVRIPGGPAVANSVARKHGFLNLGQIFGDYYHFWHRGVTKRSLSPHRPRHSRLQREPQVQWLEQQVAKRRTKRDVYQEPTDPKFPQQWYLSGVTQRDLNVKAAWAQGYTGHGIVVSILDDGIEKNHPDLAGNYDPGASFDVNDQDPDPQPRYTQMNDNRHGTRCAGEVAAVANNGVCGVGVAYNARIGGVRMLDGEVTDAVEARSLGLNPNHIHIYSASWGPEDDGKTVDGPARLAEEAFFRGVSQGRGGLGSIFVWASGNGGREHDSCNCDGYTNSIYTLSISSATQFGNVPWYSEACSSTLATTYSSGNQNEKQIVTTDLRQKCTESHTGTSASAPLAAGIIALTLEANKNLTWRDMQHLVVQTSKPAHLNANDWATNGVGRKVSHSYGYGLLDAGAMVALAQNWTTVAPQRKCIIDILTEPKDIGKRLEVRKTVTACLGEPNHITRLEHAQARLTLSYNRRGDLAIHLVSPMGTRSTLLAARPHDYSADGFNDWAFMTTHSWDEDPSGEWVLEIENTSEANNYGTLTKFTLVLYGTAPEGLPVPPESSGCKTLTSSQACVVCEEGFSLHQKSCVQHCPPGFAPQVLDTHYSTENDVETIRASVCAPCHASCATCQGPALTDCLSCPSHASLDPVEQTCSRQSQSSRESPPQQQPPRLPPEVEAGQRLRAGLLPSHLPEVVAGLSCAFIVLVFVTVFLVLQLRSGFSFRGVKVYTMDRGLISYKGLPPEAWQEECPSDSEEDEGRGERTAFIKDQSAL
- assay explanation: furin cleavage Z-score vs untreated control; higher = more cleavage, active = 3.5 or more, inactive = 1 or less, 8 variable residues between constant flanks
- condition notes: 7.5 min
This is one part of the list. The hit rate among all sequences tested is not known here.
measurement type: furin cleavage Z-score

1. CAGSSRRRRSAGNASASA [FS-1334]    9.7
2. CAVCGAPPCVAGNASASA [HC442]    1.21
3. CASRRRMKRVAGNASASA [FS-1167]    11
4. CANWAVRTKLAGNASASA [HC1634]    1.9
5. CAGSSREVRSAGNASASA [FS-29]    2.81
6. CARRRRSSSVAGNASASA [FS-2299]    3.15
7. CAAPPRARRHAGNASASA [FS-975]    8.59
8. CARYKRMVERAGNASASA [FS-2537]    7.23
9. CARYKRKSDEAGNASASA [FS-3177]    5.32
10. CASTPCSGSWAGNASASA [HC1837]    -0.691
11. CALRKRSSSTAGNASASA [FS-3179]    0.00727
12. CARRNRSTSTAGNASASA [FS-2072]    4.22
13. CAVMCCSMSYAGNASASA [HC2006]    0.223
14. CARERREVVRAGNASASA [FU3]    10.2
15. CASTPCSAKLAGNASASA [HC2554]    0.275
16. CANEECSQHLAGNASASA [HC1681]    0.726
17. CAARQRTRRHAGNASASA [FS-1112]    11.1
18. CARERRWDRGAGNASASA [FS-2010]    -1.3
19. CAMEECSAHLAGNASASA [HC1723]    1.16
20. CARRDRSTSIAGNASASA [FS-3203]    -0.171
21. CASRRRARRHAGNASASA [FS-1416]    7.59
22. CARSFRTASVAGNASASA [FS-3078]    0.727
23. CAPPLRAWRHAGNASASA [HC1618]    -0.103
24. CAVVGTTDRSAGNASASA [HC418]    0.937
25. CASEARMVRSAGNASASA [FS-1079]    1.59
26. CAEAYRSRRTAGNASASA [FS-1116]    1.35
27. CARERRRAAKAGNASASA [FS-2550]    0.778
28. CADDEVVTSTAGNASASA [HC2291]    0.608
29. CAEVVTSTWTAGNASASA [HC2258]    2.11
30. CARRRRSSSTAGNASASA [FS-3068]    8.2
